- systemTested: butyrylcholinesterase (BChE) (Rattus norvegicus)
- Sequence (Q9JKC1 24-597): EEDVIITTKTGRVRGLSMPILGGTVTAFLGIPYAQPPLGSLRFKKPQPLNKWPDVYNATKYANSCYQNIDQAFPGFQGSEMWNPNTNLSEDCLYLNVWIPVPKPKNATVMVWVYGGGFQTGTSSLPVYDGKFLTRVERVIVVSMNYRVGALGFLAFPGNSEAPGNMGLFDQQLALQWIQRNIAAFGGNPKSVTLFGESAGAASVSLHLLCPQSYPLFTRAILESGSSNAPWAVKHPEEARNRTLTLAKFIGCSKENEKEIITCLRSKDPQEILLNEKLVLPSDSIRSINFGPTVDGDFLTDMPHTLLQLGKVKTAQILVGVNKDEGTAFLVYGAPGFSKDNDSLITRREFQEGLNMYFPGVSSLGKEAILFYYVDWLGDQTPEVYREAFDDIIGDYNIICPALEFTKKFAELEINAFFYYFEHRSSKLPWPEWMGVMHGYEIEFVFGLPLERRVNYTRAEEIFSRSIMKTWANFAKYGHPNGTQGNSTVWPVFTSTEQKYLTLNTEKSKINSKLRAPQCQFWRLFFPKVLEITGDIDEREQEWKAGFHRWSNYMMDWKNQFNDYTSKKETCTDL
- methodDescription: biochemical
Here the recorded pIC50 is given for each entry.
// returns pIC50 (minus log10 of molar concentration), number only

Solved cases below.
>>> observedmeasurement("O=c1ccc2c([nH]1)CCC(NCCCNc1c3c(nc4cc(Cl)ccc14)CCCC3)C2 (stereo not shown) [Compound A]")
7.25
>>> observedmeasurement("O=c1ccc2c([nH]1)CCCC2NCCCCCCCNc1c2c(nc3cc(Cl)ccc13)CCCC2 (stereo not shown) [Compound B]")
7.51
>>> observedmeasurement("O=c1ccc2c([nH]1)CCCC2NCCCCCCCCNc1c2c(nc3ccccc13)CCCC2 (stereo not shown) [Compound D]")
6.37

Okay, next one:
I would be grateful if you could share the reported pIC50 for O=c1ccc2c([nH]1)CCCC2NCCCCCCCCNc1c2c(nc3cc(Cl)ccc13)CCCC2 (stereo not shown) [Compound C] .
6.20

Hello, the source for this data is patent US7605265B2, in case you need it.
